growth: recorded values
System: HT29 colon
Assay: NCI-60 one-dose screen, 48 h (100 = growth as untreated, 0 = no growth, -100 = all killed)
Conditions: 10 µM unless noted
Compounds without any hit were thinned out: in the full panel of roughly 83,000, 20% have a hit. Calls of active or inactive are those of the source. The calls were made as follows: active = growth percent below 10; inactive = the rest.

MOLECULE	growth
OCCN1CCN(CC/C=C2/c3ccccc3Sc3ccc(C(F)(F)F)cc32)CC1	15.8% (inactive)

Incoming: Dear colleague, please send me the reported growth for `CN(CCC#N)c1ccc(/C=C(\C#N)c2cccc(C(F)(F)F)c2)cc1` when you can.
Outgoing: 23.5% (inactive)

Incoming: Answer with reported growth of `Cc1cc2cn3c4ccc(O)cc4[nH]c(=O)c3c2cc1C`
Outgoing: -67.6% (active)

###

System: MALME-3M melanoma
Test: NCI-60 one-dose screen, 48 h (100 = growth as untreated, 0 = no growth, -100 = all killed)
Conditions: 10 µM unless noted
This is part of a sample that, as a whole, favours compounds with a hit. Of some 83,000 tested, about 20% had one in any assay. Activity calls are given as the source filed them. The calls were made as follows: active = growth percent below 10; inactive = the rest.
Listed here are compounds together with their documented growth.

> print(dat)
                                   compound  reported.endpoint                     value
1          Cc1nc(NC(=O)NC2CCCCC2)sc1C(=O)NN             growth           -7.04% (active)
2  Nc1nc2c(c3cnccc13)C(c1cccc(Cl)c1)Cc1cnccc1-2 (stereo unspecified)             growth          62.4% (inactive)
3  CSCc1ncc(-c2ccc(C(F)(F)F)cc2)c(NC2CCCCCC2)n1             growth  68.8% [25 µM] (inactive)
4  CC[C@H](Nc1ncnc2nc[nH]c12)c1nc2cccc(NCc3ccc(C(=O)NO)nc3)c2c(=O)n1-c1ccccc1             growth          62.3% (inactive)
5            CC(C)(C)c1ccc(OCCOC(=O)CBr)cc1             growth           107% (inactive)

Incoming: In one line, give reported growth of the entry `CC(=N\N=C(N)N)/C(=N/N=C(N)N)c1ccccc1` .
Outgoing: 99.2% (inactive)

Incoming: Specify growth for `Cc1[nH]n(C(=S)Nc2nc3cc(Cl)c(F)cc3s2)c(=O)c1N=Nc1ccc(F)c(Cl)c1` and stop.
Outgoing: 139% (inactive)

Incoming: Given the compound `O=C(CCl)NC1c2ccccc2Oc2ccccc21` , write its reported growth.
Outgoing: 74.1% (inactive)

Incoming: Note down growth recorded for `C=CCNCCC#N`
Outgoing: 114% (inactive)

Incoming: In one line, give reported growth of the entry `O=c1[nH]c2cc(O)ccc2n2cc3c(F)cccc3c12` .
Outgoing: 40.3% (inactive)

Incoming: Please report growth for the following compound: `O=C(Nc1cccc(Cn2c(=O)[nH]c3ccc(Oc4ncccn4)cc3c2=O)c1)c1cc(Cl)cc(Cl)c1`
Outgoing: 30.5% (inactive)

###

Recorded growth values for a group of compounds are listed next.
System: SN12C renal
Experiment: NCI-60 one-dose screen, 48 h (100 = growth as untreated, 0 = no growth, -100 = all killed)
Details: 10 µM unless noted
The panel holds about 83,000 compounds, 20% with a hit somewhere; the sample as a whole holds those more often.
Hi! Could you send only the number? It should be in %, unit omitted.

Here are 9 compounds together with their reported answers.
> print(dat)
                                   compound  value
1  COCn1c(C(=O)OC)cc2oc(/C=C3/SC(=S)N(N)C3=O)cc21    121
2      CCCCCCCCCCCCc1ccc([N+](CC)(CC)CC)cc1   33.5
3  COc1ccc(C(O)(c2ccccc2)C(C(=O)O)c2ccccc2)cc1 (stereo not given)    100
4                  O=C(CCl)c1ccc2c(c1)CCCC2   96.5
5               CCCCN(CCCC)c1ccc(C(=O)O)cc1   97.9
6  O=C(N/N=C\c1ccc(-c2ccc(Br)cc2)o1)c1cc2oc(-c3cccc(C(F)(F)F)c3)cc2[nH]1    107
7  CCS(=O)(=O)OCCO[C@H]1Cc2cc3ccc(=O)oc3cc2OC1(C)C    107
8  C/C=C/C/C=C/[C@H](C)C[C@H](O)[C@@H]1C[C@@H]2O[C@H]2/C=C/[C@@H]2OC(C)(C)O[C@H]2/C=C/C[C@H](C)CC(=O)O1   38.2
9   COc1cc2cn3c4ccc(O)cc4[nH]c(=O)c3c2cc1OC     37

Attention now shifts to the item below.
Incoming: State the measured growth (SN12C renal) of `CCOC(=O)c1c2c(cn1Cc1ccccc1)-c1oncc1CC2`
Outgoing: 76.1
